Please provide measured IC50 for the entries that follow.
- Measured target: T1, human MCH receptor (membranes from a stable CHO or HEK-293 cell line) (human, UniProt Q99705 1-353)
- T1 construct: whole, on cells; also called cloned human MCH receptor (CHO clone)
- T1 sequence (Q99705 whole entry): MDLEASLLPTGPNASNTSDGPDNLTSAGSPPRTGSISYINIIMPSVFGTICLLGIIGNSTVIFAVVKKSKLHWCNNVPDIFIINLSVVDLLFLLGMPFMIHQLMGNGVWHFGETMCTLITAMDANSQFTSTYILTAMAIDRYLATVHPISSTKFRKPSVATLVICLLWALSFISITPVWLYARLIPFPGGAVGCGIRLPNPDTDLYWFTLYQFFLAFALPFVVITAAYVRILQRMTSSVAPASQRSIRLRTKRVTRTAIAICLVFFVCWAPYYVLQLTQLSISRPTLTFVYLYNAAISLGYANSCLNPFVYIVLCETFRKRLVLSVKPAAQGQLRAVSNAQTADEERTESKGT
- Test details: SPA competition vs [125I]-human MCH (Phe13,Tyr19); human MCH receptor cell membranes
Bridges are numbered along the chain shown (N, C = ends). Where no end group is shown, it is not given here.

## Input Consider the binder Ac-RCMLGRVFRPCY-NH2 (disulfide 2-11; SMILES CSCC[C@@H]1NC(=O)[C@@H](NC(=O)[C@H](CCCNC(=N)N)NC(C)=O)CSSC[C@@H](C(=O)N[C@@H](Cc2ccc(O)cc2)C(N)=O)NC(=O)[C@@H]2CCCN2C(=O)[C@H](CCCNC(=N)N)NC(=O)[C@H](Cc2ccccc2)NC(=O)[C@H](C(C)C)NC(=O)[C@H](CCCNC(=N)N)NC(=O)CNC(=O)[C@H](CC(C)C)NC1=O) [truncated MCH analog SEQ. ID. NO. 8: Ac-Arg-Cys-Met-Leu-Gly-Arg-Val-Phe-Arg-Pro-Cys-Tyr-amide] and give its measured IC50.
## Output 160 pM

## Input Please give the measured IC50 for this binder: DFDMLRCMLGRVYRPC-NH2 (disulfide 7-16; N-terminus assumed; SMILES CSCC[C@@H]1NC(=O)[C@@H](NC(=O)[C@H](CCCNC(=N)N)NC(=O)[C@H](CC(C)C)NC(=O)[C@H](CCSC)NC(=O)[C@H](CC(=O)O)NC(=O)[C@H](Cc2ccccc2)NC(=O)[C@@H](N)CC(=O)O)CSSC[C@@H](C(N)=O)NC(=O)[C@@H]2CCCN2C(=O)[C@H](CCCNC(=N)N)NC(=O)[C@H](Cc2ccc(O)cc2)NC(=O)[C@H](C(C)C)NC(=O)[C@H](CCCNC(=N)N)NC(=O)CNC(=O)[C@H](CC(C)C)NC1=O)
## Output 300 pM
